assay: Tmax in Sprague-Dawley rat at 5 mg/kg, po by LC-MS/MS method; format: ADME, organism-based; details: in vivo
PROPERTY_NAME: Tmax

>  <QUERY_SMILES>
COC(=O)N[C@H](C(=O)N1CC(F)(F)C[C@H]1c1ncc(-c2ccc(-c3ccc4c(ccc5nc([C@@H]6C[Si](C)(C)CN6C(=O)[C@@H](NC(=O)OC)C(C)C)[nH]c54)c3)cc2)[nH]1)C(C)C.Cl.Cl

>  <READING>
5.3 h

$$$$

* * *

assay: Clearance in Sprague-Dawley rat at 2.5 mg/kg, iv by LC-MS/MS method; type: ADME, organism-based; conditions: in vivo
Recorded clearance, one value per entry.

>  <QUERY_SMILES>
COC(=O)N[C@H](C(=O)N1C[Si](C)(C)C[C@H]1c1ncc(-c2ccc(-c3ccc4c(ccc5nc([C@@H]6CC(F)(F)CN6C(=O)[C@@H](NC(=O)OC)C(C)C)[nH]c54)c3)cc2)[nH]1)C(C)C

>  <clearance / mL/min/kg>
7

$$$$
>  <QUERY_SMILES>
COC(=O)N[C@H](C(=O)N1CCC[C@H]1c1ncc(-c2ccc(-c3cc4cc(-c5cnc([C@@H]6CCCN6C(=O)[C@@H](NC(=O)OC)C(C)C)[nH]5)ccc4o3)cc2)[nH]1)C(C)C

>  <clearance / mL/min/kg>
9.3

$$$$
>  <QUERY_SMILES>
COC(=O)N[C@H](C(=O)N1CC(F)(F)C[C@H]1c1ncc(-c2ccc(-c3ccc4c(ccc5nc([C@@H]6C[Si](C)(C)CN6C(=O)[C@@H](NC(=O)OC)C(C)C)[nH]c54)c3)cc2)[nH]1)C(C)C.Cl.Cl

>  <clearance / mL/min/kg>
5.6

$$$$

* * *

# concentration at 24 h listing for each entry below
assay: Drug level in beagle dog at 2 mg/kg, po after 24 hrs by LC-MS/MS method; format: ADME, organism-based, Canis lupus familiaris; conditions: in vivo, read-out: Drug uptake

>  <QUERY_SMILES>
COC(=O)N[C@H](C(=O)N1C[Si](C)(C)C[C@H]1c1ncc(-c2ccc(-c3ccc4c(ccc5nc([C@@H]6CC(F)(F)CN6C(=O)[C@@H](NC(=O)OC)C(C)C)[nH]c54)c3)cc2)[nH]1)C(C)C

>  <concentration at 24 h, nM>
0.4

$$$$
>  <QUERY_SMILES>
COC(=O)N[C@H](C(=O)N1CC(F)(F)C[C@H]1c1ncc(-c2ccc(-c3ccc4c(ccc5nc([C@@H]6C[Si](C)(C)CN6C(=O)[C@@H](NC(=O)OC)C(C)C)[nH]c54)c3)cc2)[nH]1)C(C)C.Cl.Cl

>  <concentration at 24 h, nM>
40

$$$$

* * *

Molecular target: PXR (Nuclear receptor subfamily 1 group I member 2) (Homo sapiens)
Sequence (O75469 whole entry): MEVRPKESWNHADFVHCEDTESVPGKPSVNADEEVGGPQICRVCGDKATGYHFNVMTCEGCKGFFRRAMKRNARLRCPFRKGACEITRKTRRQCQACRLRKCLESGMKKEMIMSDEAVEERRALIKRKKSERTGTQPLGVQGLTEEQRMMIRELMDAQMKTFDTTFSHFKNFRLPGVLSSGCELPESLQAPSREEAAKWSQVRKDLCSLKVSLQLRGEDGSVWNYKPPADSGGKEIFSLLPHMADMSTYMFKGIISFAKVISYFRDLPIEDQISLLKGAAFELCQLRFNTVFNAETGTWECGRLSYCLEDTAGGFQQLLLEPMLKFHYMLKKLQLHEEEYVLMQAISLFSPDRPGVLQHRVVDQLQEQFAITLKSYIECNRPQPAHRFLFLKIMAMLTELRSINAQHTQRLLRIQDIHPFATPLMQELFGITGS
Assay: Activation of PXR (unknown origin) relative to rifampicin
Assay type: ADME
Details: read-out: FC
Reported fold induction values are given for each entry in this list.

>  <QUERY_SMILES>
COC(=O)N[C@H](C(=O)N1C[Si](C)(C)C[C@H]1c1ncc(-c2ccc(-c3ccc4c(ccc5nc([C@@H]6CC(F)(F)CN6C(=O)[C@@H](NC(=O)OC)C(C)C)[nH]c54)c3)cc2)[nH]1)C(C)C

>  <MEASUREMENT_TARGET>
PXR (Nuclear receptor subfamily 1 group I member 2) (Homo sapiens)

>  <fold induction>
0.31

$$$$
>  <QUERY_SMILES>
COC(=O)N[C@H](C(=O)N1CC(F)(F)C[C@H]1c1ncc(-c2ccc(-c3ccc4c(ccc5nc([C@@H]6C[Si](C)(C)CN6C(=O)[C@@H](NC(=O)OC)C(C)C)[nH]c54)c3)cc2)[nH]1)C(C)C

>  <MEASUREMENT_TARGET>
PXR (Nuclear receptor subfamily 1 group I member 2) (Homo sapiens)

>  <fold induction>
0.2

$$$$

* * *

experiment: Terminal half life in beagle dog at 1 mg/kg, iv by LC-MS/MS method; format: ADME, organism-based, Canis lupus familiaris; conditions: in vivo, read-out: beta t1/2 (converted)
PROPERTY_NAME: half-life

>  <QUERY_SMILES>
COC(=O)N[C@H](C(=O)N1CC(F)(F)C[C@H]1c1ncc(-c2ccc(-c3ccc4c(ccc5nc([C@@H]6C[Si](C)(C)CN6C(=O)[C@@H](NC(=O)OC)C(C)C)[nH]c54)c3)cc2)[nH]1)C(C)C.Cl.Cl

>  <PROPERTY_NAME>
half-life

>  <READING>
1560 min

$$$$

* * *

test: Ratio of drug level in liver to plasma of cynomolgus monkey; type: ADME, cell-free, Macaca fascicularis

>  <QUERY_SMILES>
COC(=O)N[C@H](C(=O)N1CC(F)(F)C[C@H]1c1ncc(-c2ccc(-c3ccc4c(ccc5nc([C@@H]6C[Si](C)(C)CN6C(=O)[C@@H](NC(=O)OC)C(C)C)[nH]c54)c3)cc2)[nH]1)C(C)C

>  <Kp>
27

$$$$

* * *

experiment: Volume of distribution at steady state in Sprague-Dawley rat at 2.5 mg/kg, iv by LC-MS/MS method; assay type: ADME, organism-based; conditions: in vivo, read-out: Vdss

>  <QUERY_SMILES>
COC(=O)N[C@H](C(=O)N1CC(F)(F)C[C@H]1c1ncc(-c2ccc(-c3ccc4c(ccc5nc([C@@H]6C[Si](C)(C)CN6C(=O)[C@@H](NC(=O)OC)C(C)C)[nH]c54)c3)cc2)[nH]1)C(C)C.Cl.Cl

>  <Vd / L/kg>
3.7

$$$$

* * *

experiment: Drug excretion in rat urine assessed as unchanged compound level at 2.5 mg/kg, iv; type: ADME, organism-based; settings: read-out: Drug excretion
PROPERTY_NAME: dose excreted (%)

>  <QUERY_SMILES>
COC(=O)N[C@H](C(=O)N1CC(F)(F)C[C@H]1c1ncc(-c2ccc(-c3ccc4c(ccc5nc([C@@H]6C[Si](C)(C)CN6C(=O)[C@@H](NC(=O)OC)C(C)C)[nH]c54)c3)cc2)[nH]1)C(C)C

>  <PROPERTY_NAME>
dose excreted

>  <READING>
27

$$$$

* * *

assay: Volume of distribution at steady state in beagle dog at 1 mg/kg, iv by LC-MS/MS method; format: ADME, organism-based, Canis lupus familiaris; conditions: in vivo, read-out: Vdss

>  <QUERY_SMILES>
COC(=O)N[C@H](C(=O)N1CC(F)(F)C[C@H]1c1ncc(-c2ccc(-c3ccc4c(ccc5nc([C@@H]6C[Si](C)(C)CN6C(=O)[C@@H](NC(=O)OC)C(C)C)[nH]c54)c3)cc2)[nH]1)C(C)C.Cl.Cl

>  <Vd [L/kg]>
1.3

$$$$

* * *

clearance reference
experiment: Clearance in cynomolgus monkey at 1 mg/kg, iv by LC-MS/MS method; type: ADME, organism-based, Macaca fascicularis; conditions: in vivo

>  <QUERY_SMILES>
COC(=O)N[C@H](C(=O)N1CC(F)(F)C[C@H]1c1ncc(-c2ccc(-c3ccc4c(ccc5nc([C@@H]6C[Si](C)(C)CN6C(=O)[C@@H](NC(=O)OC)C(C)C)[nH]c54)c3)cc2)[nH]1)C(C)C.Cl.Cl

>  <clearance / mL/min/kg>
1.2

$$$$
>  <QUERY_SMILES>
COC(=O)N[C@H](C(=O)N1C[Si](C)(C)C[C@H]1c1ncc(-c2ccc(-c3ccc4c(ccc5nc([C@@H]6CC(F)(F)CN6C(=O)[C@@H](NC(=O)OC)C(C)C)[nH]c54)c3)cc2)[nH]1)C(C)C

>  <clearance / mL/min/kg>
0.7

$$$$
>  <QUERY_SMILES>
COC(=O)N[C@H](C(=O)N1CCC[C@H]1c1ncc(-c2ccc(-c3cc4cc(-c5cnc([C@@H]6CCCN6C(=O)[C@@H](NC(=O)OC)C(C)C)[nH]5)ccc4o3)cc2)[nH]1)C(C)C

>  <clearance / mL/min/kg>
9.1

$$$$

Cited source for all entries: ChEMBL document CHEMBL4118125
